target: UniProt:Q12809; assay: Kv11.1 (hERG) ion channel activity (patch clamp assay), HEK293 cells transfected with hERG gene; conditions: Ki [Kv1.11 hERG], hERG patch clamp assay (cells without asterisk)
Sequence (Q12809 whole entry): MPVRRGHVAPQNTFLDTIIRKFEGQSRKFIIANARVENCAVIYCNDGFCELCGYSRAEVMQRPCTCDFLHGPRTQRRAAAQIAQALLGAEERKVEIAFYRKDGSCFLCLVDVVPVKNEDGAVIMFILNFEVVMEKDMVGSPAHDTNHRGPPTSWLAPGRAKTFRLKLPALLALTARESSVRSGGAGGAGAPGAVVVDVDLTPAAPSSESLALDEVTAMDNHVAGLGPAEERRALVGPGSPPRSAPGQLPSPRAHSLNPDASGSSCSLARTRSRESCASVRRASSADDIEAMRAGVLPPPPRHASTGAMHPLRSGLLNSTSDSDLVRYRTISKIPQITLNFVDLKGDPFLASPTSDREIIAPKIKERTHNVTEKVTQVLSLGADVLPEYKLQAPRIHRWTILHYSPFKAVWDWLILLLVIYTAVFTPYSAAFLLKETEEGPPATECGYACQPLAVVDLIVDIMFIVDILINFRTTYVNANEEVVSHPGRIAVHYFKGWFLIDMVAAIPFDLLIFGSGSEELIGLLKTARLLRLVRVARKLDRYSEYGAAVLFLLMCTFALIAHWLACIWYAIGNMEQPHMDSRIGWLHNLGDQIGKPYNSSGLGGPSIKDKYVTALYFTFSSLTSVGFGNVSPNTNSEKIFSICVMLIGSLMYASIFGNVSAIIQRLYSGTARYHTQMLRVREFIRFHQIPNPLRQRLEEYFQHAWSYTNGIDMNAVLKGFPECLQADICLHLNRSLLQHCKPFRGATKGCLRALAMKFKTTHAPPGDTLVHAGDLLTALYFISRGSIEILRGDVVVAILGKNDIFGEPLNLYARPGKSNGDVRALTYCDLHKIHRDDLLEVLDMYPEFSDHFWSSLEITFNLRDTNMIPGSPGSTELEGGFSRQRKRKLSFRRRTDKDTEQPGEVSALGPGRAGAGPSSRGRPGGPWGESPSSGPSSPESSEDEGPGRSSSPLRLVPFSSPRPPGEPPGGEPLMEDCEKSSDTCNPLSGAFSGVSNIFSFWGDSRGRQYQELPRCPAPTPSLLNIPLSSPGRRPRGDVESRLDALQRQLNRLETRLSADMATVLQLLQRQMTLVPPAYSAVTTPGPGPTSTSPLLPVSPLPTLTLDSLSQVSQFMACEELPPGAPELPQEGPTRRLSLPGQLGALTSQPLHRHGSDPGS
pKi: −log10 of the molar value.
Could you please report measured pKi for the items listed next?

# input For the molecule COc1nccnc1C(O)c1cc(-c2ncnc3cc(N4CCOCC4)cnc23)c(F)cc1Cl (centres unmarked) , report pKi.
# output 4.60 to 4.82

# input For the molecule Cc1nccnc1C(O)c1cc(-c2ncnc3cc(N4CCOCC4)ccc23)ccc1Cl (centres unmarked) [Example 427] , report pKi.
# output 4.60 to 4.82

# input For the molecule COc1cncnc1C(O)c1cc(-c2ncnc3cc(N4CCOCC4)ccc23)c(F)cc1Cl (centres unmarked) , report pKi.
# output 4.82 to 5.00

# input For the molecule OC(c1cc(-c2ncnc3cc(N4CCOCC4)ccc23)ccc1F)c1ncnc2sccc12 (centres unmarked) , report pKi.
# output 4.82 to 5.00

# input For the molecule NC(=O)C(c1cc(-c2ncnc3cc(N4CCOCC4)ccc23)c(F)cc1Cl)c1ncccc1Cl (centres unmarked) , report pKi.
# output 4.60 to 4.82

# input For the molecule [2H]c1c(N2CCOCC2)cc2ncnc(-c3cc(C(O)c4nccnc4C)ccc3F)c2c1[2H] (centres unmarked) , report pKi.
# output < 4.60

# input For the molecule Cn1ncc2c(C(O)c3cc(-c4ncnc5cc(N6CCOCC6)ccc45)c(F)cc3F)ncnc21 (centres unmarked) , report pKi.
# output 4.60 to 4.82

# input For the molecule NC(=O)C(c1ccc(F)c(-c2ncnc3cc(N4CCOCC4)ccc23)c1)c1c(F)cncc1F (centres unmarked) , report pKi.
# output 4.60 to 4.82

###

target: DNA-PK (Homo sapiens (Human)); assay: DNA-PK assay (biochemical), flashplate 33P-ATP kinase assay; settings: biochemical DNA-PK assay
Measured Endpoint: IC50

# input State measured IC50 of the molecule OC(c1ccc(F)c(-c2ncnc3cc(N4CCOCC4)ccc23)c1)c1ncccc1Cl (centres unmarked) [Example 465] with DNA-PK (Homo sapiens (Human)).
# output < 3 nM

# input State measured IC50 of the molecule OC(c1cc(-c2ncnc3cc(N4CCOCC4)ccc23)c(F)cc1F)c1ncnc2c1CCNC2 (centres unmarked) [Example 387] with DNA-PK (Homo sapiens (Human)).
# output 7 to 30 nM

# input State measured IC50 of the molecule COC(c1ccc(F)c(-c2ncnc3cc(N4CCOCC4)ccc23)c1)c1nccnc1C (centres unmarked) [Example 352] with DNA-PK (Homo sapiens (Human)).
# output > 30 nM

# input State measured IC50 of the molecule Cc1nccnc1C(O)c1cc(-c2ncnc3cc(N4CCOCC4)ccc23)c(F)cc1Cl (centres unmarked) [Example 457] with DNA-PK (Homo sapiens (Human)).
# output 3 to 7 nM

# input State measured IC50 of the molecule Cn1cnc2ncnc(C(O)c3ccc(F)c(-c4ncnc5cc(N6CCOCC6)ccc45)c3)c21 (centres unmarked) [Example 433] with DNA-PK (Homo sapiens (Human)).
# output 7 to 30 nM

# input State measured IC50 of the molecule O=c1ccc(C(O)c2ccc(F)c(-c3ncnc4cc(N5CCOCC5)ccc34)c2)n[nH]1 (centres unmarked) [Example 367] with DNA-PK (Homo sapiens (Human)).
# output < 3 nM

# input State measured IC50 of the molecule Cn1c(C(O)c2ccc(F)c(-c3ncnc4cc(N5CCOCC5)ccc34)c2)cccc1=O (centres unmarked) [Example 376] with DNA-PK (Homo sapiens (Human)).
# output < 3 nM

# input State measured IC50 of the molecule COc1ccc(C(C(N)=O)c2cc(-c3ncnc4cc(N5CCOCC5)ccc34)c(F)cc2Cl)nn1 (centres unmarked) [Example 325] with DNA-PK (Homo sapiens (Human)).
# output > 30 nM

###

biological target: DNA-PK (Homo sapiens (Human), UniProt P78527); assay: DNA-PK assay (biochemical), flashplate 33P-ATP kinase assay; details: enzymatic; 5 μM ATP
pIC50: −log10 of the molar value.
Could you please report measured pIC50 for the items listed next?

# input State measured pIC50 of the compound O=c1ccc(C(O)c2cc(-c3ncnc4cc(N5CCOCC5)ccc34)c(F)cc2Cl)nn1CCO (centres unmarked) [Example 99] with DNA-PK (Homo sapiens (Human), UniProt P78527).
# output 8.15 to 8.52

# input State measured pIC50 of the compound CC(C)(C)Oc1nccnc1C(O)c1ccc(F)c(-c2ncnc3cc(N4CCOCC4)ccc23)c1 (centres unmarked) [Example 13] with DNA-PK (Homo sapiens (Human), UniProt P78527).
# output < 7.52

# input State measured pIC50 of the compound COc1ccc(C(OC)c2ccc(F)c(-c3ncnc4cc(N5CCOCC5)ccc34)c2)nn1 (centres unmarked) [Example 73] with DNA-PK (Homo sapiens (Human), UniProt P78527).
# output 8.15 to 8.52

# input State measured pIC50 of the compound COCCOc1ccc(C(O)c2cc(-c3ncnc4cc(N5CCOCC5)ccc34)c(F)cc2Cl)nn1 (centres unmarked) [Example 112] with DNA-PK (Homo sapiens (Human), UniProt P78527).
# output > 8.52

# input State measured pIC50 of the compound COc1cnc(C(O)c2ccc(F)c(-c3ncnc4cc(N5CCOCC5)ccc34)c2)c(Cl)c1 (centres unmarked) [Example 31] with DNA-PK (Homo sapiens (Human), UniProt P78527).
# output > 8.52

# input State measured pIC50 of the compound OC(c1ccc2nccn2n1)c1cc(-c2ncnc3cc(N4CCOCC4)ccc23)c(F)cc1Cl (centres unmarked) [Example 57] with DNA-PK (Homo sapiens (Human), UniProt P78527).
# output > 8.52

# input State measured pIC50 of the compound CSc1ccc(C(O)c2cc(-c3ncnc4cc(N5CCOCC5)ccc34)c(F)cc2Cl)nn1 (centres unmarked) [Example 108] with DNA-PK (Homo sapiens (Human), UniProt P78527).
# output 8.15 to 8.52

# input State measured pIC50 of the compound Cc1cc(F)c(-c2ncnc3cc(N4CCOCC4)ccc23)cc1C(O)c1nccs1 (centres unmarked) [Example 209] with DNA-PK (Homo sapiens (Human), UniProt P78527).
# output < 7.52

###

molecular target: DNA-PK (Homo sapiens (Human)); test: DNA-PK assay (biochemical), flashplate 33P-ATP kinase assay; conditions: biochemical DNA-PK assay
Could you please report measured IC50 for the items listed next?

# input For the compound COc1nnc(Cl)cc1C(O)c1ccc(F)c(-c2ncnc3cc(N4CCOCC4)ccc23)c1 (stereo not shown) [Example 286] , report IC50.
# output 7 to 30 nM

# input For the compound OC(c1ccc(F)c(-c2ncnc3cc(N4CCOCC4)ccc23)c1)c1nnc2ccccn12 (stereo not shown) [Example 399] , report IC50.
# output < 3 nM

# input For the compound Cn1cnc2c(C(O)c3cc(-c4ncnc5cc(N6CCOCC6)ccc45)c(F)cc3F)ncnc21 (stereo not shown) [Example 421] , report IC50.
# output 7 to 30 nM

# input For the compound Cc1nccnc1C(O)c1cc(-c2ncnc3cc(N4CCOCC4)ccc23)ccc1F (stereo not shown) [Example 393] , report IC50.
# output 3 to 7 nM

# input For the compound Cc1cncnc1C(O)c1cc(-c2ncnc3cc(N4CCOCC4)ccc23)ccc1Cl (stereo not shown) [Example 418] , report IC50.
# output 7 to 30 nM

# input For the compound Cc1nccnc1C(O)c1cc(-c2ncnc3cc(N4CCOCC4)ccc23)ccc1Cl (stereo not shown) [Example 427] , report IC50.
# output 7 to 30 nM

# input For the compound Cn1cnc2ncnc(C(O)c3cc(-c4ncnc5cc(N6CCOCC6)ccc45)c(F)cc3Cl)c21 (stereo not shown) [Example 423] , report IC50.
# output 7 to 30 nM

# input For the compound Oc1ncnc(C(O)c2cc(-c3ncnc4cc(N5CCOCC5)ccc34)ccc2Cl)c1Cl (stereo not shown) [Example 330] , report IC50.
# output 7 to 30 nM

# input For the compound NC(=O)C(c1ccc(F)c(-c2ncnc3cc(N4CCOCC4)ccc23)c1)c1cncc(F)c1Cl (stereo not shown) [Example 322] , report IC50.
# output 3 to 7 nM

# input For the compound OC(c1cc(-c2ncnc3cc(N4CCOCC4)ccc23)c(F)cc1F)c1ncnc2ccoc12 (stereo not shown) [Example 444] , report IC50.
# output < 3 nM

# input For the compound OC(c1cccnn1)c1cc(-c2ncnc3cc(N4CCOCC4)ccc23)ccc1Cl (stereo not shown) [Example 479] , report IC50.
# output 3 to 7 nM

# input For the compound Cc1nccnc1C(O)c1cc(-c2ncnc3cc(N4CCOCC4)ccc23)ccc1Cl (stereo not shown) [Example 426] , report IC50.
# output 7 to 30 nM

# input For the compound NC(=O)C(c1ccc(F)c(-c2ncnc3cc(N4CCOCC4)ccc23)c1)c1nncc2ccsc12 (stereo not shown) [Example 284] , report IC50.
# output 3 to 7 nM

# input For the compound CNC(=O)C(c1ccc2nccn2n1)c1cc(-c2ncnc3cc(N4CCOCC4)ccc23)c(F)cc1Cl (stereo not shown) [Example 236] , report IC50.
# output > 30 nM

# input For the compound OC(c1cc(-c2ncnc3cc(N4CCOCC4)ccc23)ccc1Cl)c1ncncc1F (stereo not shown) [Example 390] , report IC50.
# output 3 to 7 nM

# input For the compound OC(c1ccc(F)c(-c2ncnc3cc(N4CCOCC4)ccc23)c1)c1ncnc2ccoc12 (stereo not shown) [Example 471] , report IC50.
# output < 3 nM
